FYI, the data here is from ChEMBL document CHEMBL5608261.

- protocol_description: Selectivity index, ratio of CC50 for cytotoxicity against human SH-SY5Y cells to EC50 for anti-amoebic activity against Naegleria fowleri Nf69 (ATCC 30215) assessed as inhibition of amoeba growth
- Format: toxicity, cell-based
# reported Ratio CC50/EC50; entries follow
measured_parameter: Ratio CC50/EC50

> print(dat)
                                   molecule  measured.parameter  result
1  CN1CCC[C@@H]2c3nc4ccc(Cl)cc4c(=O)n3CC[C@H]21     Ratio CC50/EC50  > 71.4
2  CN1CCC[C@@H]2c3nc4ccc(Cl)cc4c(=O)n3CC[C@H]21 (racemic)     Ratio CC50/EC50    > 20
3  COc1cc2nc3n(c(=O)c2cc1Cl)CC[C@@H]1[C@@H]3CCCN1CC1COC1     Ratio CC50/EC50  > 40.8
4  CN1CCC[C@@H]2c3nc4ccc(C(F)(F)F)cc4c(=O)n3CC[C@H]21 (racemic)     Ratio CC50/EC50  > 18.2
5  COc1cc2nc3n(c(=O)c2cc1Cl)CC[C@@H]1[C@@H]3CCCN1CC(C)C     Ratio CC50/EC50  > 32.3

* * *

- protocol_description: Drug concentration in female CD-1 mouse brain at 11 mg/kg, po measured after 12 hrs by LC-MS/MS analysis
- Assay type: ADME, organism-based
- test_conditions: read-out: Ct
measured_parameter: concentration at 12 h (ng/g)

> print(dat)
                              line.notation     measured.parameter  readout.number
1  COc1cc2nc3n(c(=O)c2cc1Cl)CC[C@H]1[C@H]3CCCN1CC1COC1  concentration at 12 h            10.4

* * *

- Test system: Naegleria fowleri
- protocol_description: Anti-ameobic activity against Naegleria fowleri Nf69 (ATCC 30215) trophozoites assessed as inhibition of amoeba growth incubated for 48 hrs by CellTiter-Glo assay
- Assay type: functional, organism-based
- test_conditions: Naegleria fowleri, Nf69 (ATCC 30215), 48 h
pEC50: −log10 of the molar value.
Please note: yes applies when pEC50 is 7 or greater, and no applies otherwise.

> print(dat)
                                   molecule  category.label
1  COc1ccc2c(=O)n3c(nc2c1)[C@H]1CCCN(C)[C@@H]1CC3 (racemic)              no
2  CN(C)C(=O)CN1CCC[C@@H]2c3nc4cc(Cl)c(Cl)cc4c(=O)n3CC[C@H]21 (racemic)              no
3  CN1CCC[C@H]2c3nc4cc(-c5ccccc5)c(Cl)cc4c(=O)n3CC[C@H]21 (racemic)              no
4  O=c1c2cc(Cl)c(Cl)cc2nc2n1CC[C@@H]1[C@@H]2CCCN1Cc1ccncc1 (racemic)              no
5  CN1CCC[C@H]2c3nc4ccccc4c(=O)n3CC[C@H]21 (racemic)              no
6  CC(C)OCCN1CCC[C@@H]2c3nc4cc(Cl)c(Cl)cc4c(=O)n3CC[C@H]21 (racemic)             yes

* * *

- protocol_description: Drug concentration in female CD-1 mouse brain at 11 mg/kg, iv measured after 12 hrs by LC-MS/MS analysis
- Assay type: ADME, organism-based
- test_conditions: read-out: Ct
measured_parameter: concentration at 12 h (ng/g)

> print(dat)
                              line.notation     measured.parameter  result.unit  readout.number
1  COc1cc2nc3n(c(=O)c2cc1Cl)CC[C@H]1[C@H]3CCCN1CC1COC1  concentration at 12 h         ng/g            13.3

* * *

- protocol_description: Metabolic stability in CD-1 mouse liver microsomes assessed as half-life incubated for 60 mins by LC-MS/MS analysis
- Assay type: ADME, Microsome
- test_conditions: 1 h
Outcome label depends on t1/2 relative to 10 min: at/above gives TRUE, below gives FALSE.

> print(dat)
                                   molecule  category.label
1  COc1cc2nc3n(c(=O)c2cc1Cl)CC[C@@H]1[C@@H]3CCCN1CC1COC1 (racemic)            TRUE
2  COc1cc2nc3n(c(=O)c2cc1Cl)CC[C@@H]1[C@@H]3CCCN1CC1CCC1 (racemic)           FALSE
3  CC(C)N1CCC[C@@H]2c3nc4cc(Cl)c(Cl)cc4c(=O)n3CC[C@H]21 (racemic)            TRUE
4  COc1cc2nc3n(c(=O)c2cc1Cl)CC[C@@H]1[C@@H]3CCCN1CCOC(C)C (racemic)           FALSE
5  O=c1c2cc(Cl)c(Cl)cc2nc2n1CC[C@@H]1[C@@H]2CCCN1CC1COC1 (racemic)            TRUE
6  CN1CCC[C@@H]2c3nc4ccc(C(F)(F)F)cc4c(=O)n3CC[C@H]21            TRUE
7  COc1cc2nc3n(c(=O)c2cc1Cl)CC[C@@H]1[C@@H]3CCCN1CC1CC1 (racemic)            TRUE

* * *

- protocol_description: Kinetic solubility of compound at pH 7.4 incubated for 24 hrs by HPLC analysis
- Assay type: physicochemical
- test_conditions: buffer, pH 7.4, read-out: Kinetic_solubility
measured_parameter: solubility kinetic at 24 h (µM)

> print(dat)
                                    compound  readout.number
 1  COc1cc2nc3n(c(=O)c2cc1Cl)CC[C@@H]1[C@@H]3CCCN1CC1CC1 (racemic)            76.1
 2  COc1cc2nc3n(c(=O)c2cc1C#N)CC[C@@H]1[C@@H]3CCCN1CC1COC1 (racemic)             136
 3  CN1CCC[C@@H]2c3nc4cc(Cl)c(Cl)cc4c(=O)n3CC[C@H]21 (racemic)             138
 4  COc1cc2nc3n(c(=O)c2cc1Cl)CC[C@@H]1[C@@H]3CCCN1CC1CCC1 (racemic)             4.6
 5  COc1cc2nc3n(c(=O)c2cc1Cl)CC[C@@H]1[C@@H]3CCCN1Cc1cccnc1 (racemic)             3.8
 6  COc1cc2nc3n(c(=O)c2cc1Cl)CC[C@@H]1[C@@H]3CCCN1CC1COC1            29.1
 7  COc1cc2nc3n(c(=O)c2cc1Cl)CC[C@H]1[C@H]3CCCN1CC1COC1            23.9
 8  CN1CCC[C@@H]2c3nc4ccc(Cl)cc4c(=O)n3CC[C@H]21 (racemic)             187
 9  COc1cc2nc3n(c(=O)c2cc1Cl)CC[C@@H]1[C@@H]3CCCN1CCN1CCOCC1 (racemic)            43.1
10  COc1cc2nc3n(c(=O)c2cc1Cl)CC[C@@H]1[C@@H]3CCCN1CCOC(C)C (racemic)            65.7
11  COc1cc2nc3n(c(=O)c2cc1Cl)CC[C@@H]1[C@@H]3CCCN1CCN1CCCC1 (racemic)             172
12  COc1cc2nc3n(c(=O)c2cc1Cl)CC[C@H]1[C@H]3CCCN1CC(C)C             2.6
13  CN1CCC[C@@H]2c3nc4ccc(C(F)(F)F)cc4c(=O)n3CC[C@H]21 (racemic)             159

* * *

- protocol_description: Selectivity index, ratio of CC50 for cytotoxicity against human SH-SY5Y cells to EC50 for anti-amoebic activity against Naegleria fowleri Nf69 (ATCC 30215) assessed as inhibition of amoeba growth
- Format: toxicity, cell-based
- test_conditions: SH-SY5Y cells, read-out: Ratio CC50/EC50
measured_parameter: selectivity ratio

> print(dat)
                                    compound  qualifier.symbol  readout.number
 1  COc1cc2nc3n(c(=O)c2cc1Cl)CC[C@@H]1[C@@H]3CCCN1CC1CC1 (racemic)                 =            43.5
 2  COc1cc2nc3n(c(=O)c2cc1C#N)CC[C@@H]1[C@@H]3CCCN1CC1COC1 (racemic)                 >             167
 3  O=c1c2cc(Cl)c(Cl)cc2nc2n1CC[C@@H]1[C@@H]2CCCN1CC1COC1 (racemic)                 >           33000
 4  CN1CCC[C@H]2c3nc4ccc(C(F)(F)F)cc4c(=O)n3CC[C@@H]21                 >             4.7
 5  COc1cc2nc3n(c(=O)c2cc1Cl)CC[C@@H]1[C@@H]3CCCN1CC1CCC1 (racemic)                 =            42.7
 6  COc1cc2nc3n(c(=O)c2cc1Cl)CC[C@@H]1[C@@H]3CCCN1CCOC(C)C (racemic)                 =            22.7
 7  COc1cc2nc3n(c(=O)c2cc1Cl)CC[C@H]1[C@H]3CCCN1CC(C)C                 =              38
 8  CN1CCC[C@H]2c3nc4ccc(Cl)cc4c(=O)n3CC[C@@H]21                 >               5
 9  COc1cc2nc3n(c(=O)c2cc1Cl)CC[C@@H]1[C@@H]3CCCN1Cc1cccnc1 (racemic)                 >             167
10  COc1cc2nc3n(c(=O)c2cc1Cl)CC[C@H]1[C@H]3CCCN1CC1COC1                 =             192
11  CC(C)NCCN1CCC[C@@H]2c3nc4cc(Cl)c(Cl)cc4c(=O)n3CC[C@H]21 (racemic)                 =              49
12  COc1cc2nc3n(c(=O)c2cc1Cl)CC[C@@H]1[C@@H]3CCCN1CCN1CCCC1 (racemic)                 >              27
13  COc1cc2nc3n(c(=O)c2cc1Cl)CC[C@@H]1[C@@H]3CCCN1CCN1CCOCC1 (racemic)                 >            38.5
14  CN(C)CCN1CCC[C@@H]2c3nc4cc(Cl)c(Cl)cc4c(=O)n3CC[C@H]21 (racemic)                 =              44
15  CN1CCC[C@H]2c3nc4cc(Cl)c(Cl)cc4c(=O)n3CC[C@@H]21                 >             7.7
16  CN1CCC[C@@H]2c3nc4cc(Cl)c(Cl)cc4c(=O)n3CC[C@H]21 (racemic)                 >             100
17  O=c1c2cc(Cl)c(Cl)cc2nc2n1CC[C@@H]1[C@@H]2CCCN1CC1CC1 (racemic)                 =            2400
18  COCCN1CCC[C@@H]2c3nc4cc(Cl)c(Cl)cc4c(=O)n3CC[C@H]21 (racemic)                 =             435
